The origin of these recorded values is patent EP4759807A1.

Biological target: IRAK4 (Homo sapiens)
Sequence (Q9NWZ3 whole entry, species assumed): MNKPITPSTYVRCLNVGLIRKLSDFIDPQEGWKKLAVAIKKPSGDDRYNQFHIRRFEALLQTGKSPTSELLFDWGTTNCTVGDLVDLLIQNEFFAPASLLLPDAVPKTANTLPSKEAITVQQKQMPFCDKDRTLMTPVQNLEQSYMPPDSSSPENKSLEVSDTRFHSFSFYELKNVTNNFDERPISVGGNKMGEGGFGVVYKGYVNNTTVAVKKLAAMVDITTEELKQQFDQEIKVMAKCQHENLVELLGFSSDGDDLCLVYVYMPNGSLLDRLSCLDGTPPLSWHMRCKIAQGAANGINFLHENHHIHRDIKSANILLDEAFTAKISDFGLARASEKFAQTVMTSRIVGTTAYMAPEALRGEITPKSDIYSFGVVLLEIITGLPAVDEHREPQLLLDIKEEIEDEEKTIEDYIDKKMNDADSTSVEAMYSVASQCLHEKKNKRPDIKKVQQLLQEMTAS
Assay: Hibit fluorescence detection of proteolysis (IRAK4-HiBiT in HEK293T cells)
Assay type: cell-based
Design: host or cells: HEK293T (ATCC)
Conditions: IRAK4-HiBiT, HEK293T cells, 24 h
measurement-type: DC50

{"compound": "Cn1c(=O)n(C2CCC(=O)NC2=O)c2cccc(N3CCN(C[C@H]4CC[C@H](n5cc(-n6cc(-c7cnn8ccc(N[C@@H]9CCCC[C@@H]9O)nc78)nn6)c(C(F)F)n5)CC4)CC3)c21 (some centres unmarked)", "meas-value": "0.5 to 1 nM"}
{"compound": "C[C@H](C#Cc1cccc2c1n(C)c(=O)n2C1CCC(=O)NC1=O)OC1CCN(C[C@H]2CC[C@H](n3cc(-n4cc(-c5cnn6ccc(N7CCOCC7)nc56)nn4)c(C(F)F)n3)CC2)CC1 (some centres unmarked)", "meas-value": "< 0.5 nM"}
{"compound": "Cn1c(=O)n(C2CCC(=O)NC2=O)c2cccc(NC(=O)N3CCC4(CCN(C[C@H]5CC[C@H](n6cc(-n7cc(-c8ccc9cc(C(N)=O)cnn89)nn7)c(C(F)F)n6)CC5)C4)CC3)c21 (some centres unmarked)", "meas-value": "> 5 nM"}
{"compound": "C[C@H]1CN(c2cccc3c2n(C)c(=O)n3C2CCC(=O)NC2=O)CCN1C[C@H]1CC[C@H](n2cc(-n3cc(-c4cnn5ccc(N6CCC(C)(O)CC6)nc45)nn3)c(C(F)F)n2)CC1 (some centres unmarked)", "meas-value": "< 0.5 nM"}
{"compound": "Cn1c(=O)n(C2CCC(=O)NC2=O)c2cccc(N3CCC4(CCCN(C[C@H]5CC[C@H](n6cc(-n7cc(-c8cnn9ccc(N%10CCOCC%10)nc89)nn7)c(C(F)F)n6)CC5)C4)CC3)c21 (some centres unmarked)", "meas-value": "0.5 to 1 nM"}
